Structures can show the parent of a compound that is named as a salt.
The compounds listed here are annotated with their melting point.

{"columns": ["compound", "melting point"],
 "data": [
  ["COc1ccccc1C[C@H]1CN(C2=Nc3ccccc3Nc3sc(C)cc32)CCN1C", "81 to 93 °C"],
  ["Cc1cc2c(s1)Nc1ccccc1N=C2N1CCN[C@@H](Cc2ccccc2F)C1", "84 to 102 °C"],
  ["Cc1ccc2c(c1)C(N1CCN(C)CC1)=Nc1ccccc1N2", "170 to 177 °C (dec.)"],
  ["Cc1cc2c(s1)Nc1ccccc1N=C2N1CCN[C@@H](CCc2ccccc2)C1", "75 to 84 °C"],
  ["Cc1cc2c(s1)Nc1ccccc1N=C2N1CCN[C@@H](CCc2cccnc2)C1 (as salt: hydrochloride) (hydrate or solvate)", "226 to 229 °C (dec.)"],
  ["CC(C)n1nc2c(n1)C(N1CCN[C@@H](CCc3ccccc3)C1)=Nc1ccccc1N2 (as salt: hydrochloride) (hydrate or solvate) [Example 594, dihydrochloride hemihydrate]", "210 °C"],
  ["Cc1cc2c(s1)Nc1ccccc1N=C2N1CCN[C@@H](CCc2cccc(Cl)c2)C1", "68 to 74 °C (dec.)"]
]}
